These entries and their values trace back to PubChem BioAssay AID2060330.

# maps each entry to its viability, T/C
System: LG0703-F948-PDC spheroids with HUVEC/MSC, viability
METHOD SUMMARY: Anticancer human tumor LG0703-F948-PDC patient-derived lung adenocarcinoma cell line growth inhibition [IpAb]
RUN PARAMETERS: second compound 3.16 µM; first compound 0.316 µM; active compounds read low
Protocol: Combinatorial screen of targeted agents with ipatasertib and abemaciclib in multi-cell type tumor spheroids […] Compounds. […] If the clinical Cmax for an agent had not been determined, the highest concentration tested was 10 microM. NCI60 Cell Culture. […] The optimal seeding densities for each of the cell lines at each time point assessed were determined prior to performing the concentration response studies. […]
Report the value in % with no unit label.

Input COc1c(OCCCN2CCOCC2)ccc2c3n(c(=NC(=O)c4cnc(N)nc4)nc12)CCN3 + CC(C)NCC(C(=O)N1CCN(c2ncnc3c2C(C)CC3O)CC1)c1ccc(Cl)cc1 . Output viability, T/C: 4.56

Input C=CCn1c(=O)c2cnc(Nc3ccc(N4CCN(C)CC4)cc3)nc2n1-c1cccc(C(C)(C)O)n1 + CC(C)NCC(C(=O)N1CCN(c2ncnc3c2C(C)CC3O)CC1)c1ccc(Cl)cc1 . Output viability, T/C: 28.3

Input CCCS(=O)(=O)Nc1ccc(F)c(C(=O)c2c[nH]c3ncc(-c4ccc(Cl)cc4)cc23)c1F + CC(C)NCC(C(=O)N1CCN(c2ncnc3c2C(C)CC3O)CC1)c1ccc(Cl)cc1 . Output viability, T/C: 45

* * *

# maps each entry to its viability, T/C
Tested on: LG0703-F948-PDC spheroids with HUVEC/MSC, viability
METHOD SUMMARY: Anticancer human tumor LG0703-F948-PDC cell line growth inhibition [IpAb];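 note: spheroids exposed to compounds for seven days before readout; T/C percent relative to DMSO vehicle wells set as 100% viability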
RUN PARAMETERS: second compound 0.0316 µM; first compound 3.16 µM; active compounds read low
Report the value in % with no unit label.

# COMPOUND, NUMERIC RESULT
records = [
    ("Cc1nc(NC(=O)N2CCCC2C(N)=O)sc1-c1ccnc(C(C)(C)C(F)(F)F)c1 (configuration not stated) + CCN1CCN(Cc2ccc(Nc3ncc(F)c(-c4cc(F)c5nc(C)n(C(C)C)c5c4)n3)nc2)CC1", 25.5),
]

# context switch: different compound, same viability, T/C
Here CC1(C)CCC(CN2CCN(c3ccc(C(=O)NS(=O)(=O)c4ccc(NCC5CCOCC5)c([N+](=O)[O-])c4)c(Oc4cnc5[nH]ccc5c4)c3)CC2)=C(c2ccc(Cl)cc2)C1 + CCN1CCN(Cc2ccc(Nc3ncc(F)c(-c4cc(F)c5nc(C)n(C(C)C)c5c4)n3)nc2)CC1 was tested on LG0703-F948-PDC spheroids with HUVEC/MSC, viability, and its viability, T/C came to 75.3

* * *

Test system: LG0703-F948-PDC spheroids with HUVEC/MSC, viability
METHOD SUMMARY: Anticancer human tumor LG0703-F948-PDC cell line growth inhibition [IpAb];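 note: spheroids exposed to compounds for seven days before readout; T/C percent relative to DMSO vehicle wells set as 100% viability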
RUN PARAMETERS: second compound 0.1 µM; first compound 0.001 µM; active compounds read low
# maps each entry to its viability, T/C
Report the value in % with no unit label.

Below: 3 compounds and their reported viability, T/C.
# COMPOUND, TGT, UNITS TEXT, NUMERIC RESULT
records = [
    ("Cn1ncnc1[C@H]1c2n[nH]c(=O)c3cc(F)cc(c23)N[C@@H]1c1ccc(F)cc1 + CCN1CCN(Cc2ccc(Nc3ncc(F)c(-c4cc(F)c5nc(C)n(C(C)C)c5c4)n3)nc2)CC1", "LG0703-F948-PDC spheroids with HUVEC/MSC, viability", "%", 88.8),
    ("CC(C)n1nc(-c2ccc3oc(N)nc3c2)c2c(N)ncnc21 + CCN1CCN(Cc2ccc(Nc3ncc(F)c(-c4cc(F)c5nc(C)n(C(C)C)c5c4)n3)nc2)CC1", "LG0703-F948-PDC spheroids with HUVEC/MSC, viability", "%", 71.2),
    ("CC(C)n1nc(-c2ccc3oc(N)nc3c2)c2c(N)ncnc21 + CC(C)NCC(C(=O)N1CCN(c2ncnc3c2C(C)CC3O)CC1)c1ccc(Cl)cc1", "LG0703-F948-PDC spheroids with HUVEC/MSC, viability", "%", 64.8),
]

# context switch: different compound, same viability, T/C
Input Cn1ncnc1[C@H]1c2n[nH]c(=O)c3cc(F)cc(c23)N[C@@H]1c1ccc(F)cc1 + CC(C)NCC(C(=O)N1CCN(c2ncnc3c2C(C)CC3O)CC1)c1ccc(Cl)cc1 . Output viability, T/C: 79.1

* * *

Test system: LG0703-F948-PDC spheroids with HUVEC/MSC, viability
METHOD SUMMARY: Anticancer human tumor LG0703-F948-PDC cell line growth inhibition [IpAb];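 note: spheroids exposed to compounds for seven days before readout; T/C percent relative to DMSO vehicle wells set as 100% viability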
RUN PARAMETERS: second compound 1 µM; first compound 3.16 µM; active compounds read low
MEASURED METRIC: viability, T/C (%)
Report the value in % with no unit label.

# MOLECULE, NUMERIC RESULT
measured = [
    ("CC1(C)CCC(CN2CCN(c3ccc(C(=O)NS(=O)(=O)c4ccc(NCC5CCOCC5)c([N+](=O)[O-])c4)c(Oc4cnc5[nH]ccc5c4)c3)CC2)=C(c2ccc(Cl)cc2)C1 + CC(C)NCC(C(=O)N1CCN(c2ncnc3c2C(C)CC3O)CC1)c1ccc(Cl)cc1", 44.3),
    ("CCCS(=O)(=O)Nc1ccc(F)c(C(=O)c2c[nH]c3ncc(-c4ccc(Cl)cc4)cc23)c1F + CCN1CCN(Cc2ccc(Nc3ncc(F)c(-c4cc(F)c5nc(C)n(C(C)C)c5c4)n3)nc2)CC1", 75.6),
    ("CC1(C)CCC(CN2CCN(c3ccc(C(=O)NS(=O)(=O)c4ccc(NCC5CCOCC5)c([N+](=O)[O-])c4)c(Oc4cnc5[nH]ccc5c4)c3)CC2)=C(c2ccc(Cl)cc2)C1 + CCN1CCN(Cc2ccc(Nc3ncc(F)c(-c4cc(F)c5nc(C)n(C(C)C)c5c4)n3)nc2)CC1", 36.9),
    ("C=CC(=O)N1CCN(c2nc(=O)n(-c3c(C)ccnc3C(C)C)c3nc(-c4c(O)cccc4F)c(F)cc23)C(C)C1 (stereo not given) + CC(C)NCC(C(=O)N1CCN(c2ncnc3c2C(C)CC3O)CC1)c1ccc(Cl)cc1", 50.8),
    ("Cn1nccc1Nc1nccc(-c2ccn(C(CO)c3ccc(Cl)c(F)c3)c(=O)c2)n1 (stereo not given) + CC(C)NCC(C(=O)N1CCN(c2ncnc3c2C(C)CC3O)CC1)c1ccc(Cl)cc1", 12.3),
]

Input Cn1nccc1Nc1nccc(-c2ccn(C(CO)c3ccc(Cl)c(F)c3)c(=O)c2)n1 (stereo not given) + CCN1CCN(Cc2ccc(Nc3ncc(F)c(-c4cc(F)c5nc(C)n(C(C)C)c5c4)n3)nc2)CC1 . Output viability, T/C: 66.2

Input Cc1nc(NC(=O)N2CCCC2C(N)=O)sc1-c1ccnc(C(C)(C)C(F)(F)F)c1 (stereo not given) + CCN1CCN(Cc2ccc(Nc3ncc(F)c(-c4cc(F)c5nc(C)n(C(C)C)c5c4)n3)nc2)CC1 . Output viability, T/C: 32.6

Input Cn1ncc(Cl)c1-c1cc(C(=O)NC(CN)Cc2cccc(F)c2)sc1Cl (stereo not given) + CC(C)NCC(C(=O)N1CCN(c2ncnc3c2C(C)CC3O)CC1)c1ccc(Cl)cc1 . Output viability, T/C: 11

Input C=CC(=O)N1CCN(c2nc(=O)n(-c3c(C)ccnc3C(C)C)c3nc(-c4c(O)cccc4F)c(F)cc23)C(C)C1 (stereo not given) + CCN1CCN(Cc2ccc(Nc3ncc(F)c(-c4cc(F)c5nc(C)n(C(C)C)c5c4)n3)nc2)CC1 . Output viability, T/C: 95.7

Input Cc1nc(NC(=O)N2CCCC2C(N)=O)sc1-c1ccnc(C(C)(C)C(F)(F)F)c1 (stereo not given) + CC(C)NCC(C(=O)N1CCN(c2ncnc3c2C(C)CC3O)CC1)c1ccc(Cl)cc1 . Output viability, T/C: 13.8

* * *

# maps each entry to its viability, T/C
System: LG0703-F948-PDC spheroids with HUVEC/MSC, viability
METHOD SUMMARY: Anticancer human tumor LG0703-F948-PDC cell line growth inhibition [IpAb];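 note: spheroids exposed to compounds for seven days before readout; T/C percent relative to DMSO vehicle wells set as 100% viability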
RUN PARAMETERS: second compound 0.0316 µM; first compound 0.0316 µM; active compounds read low
Report the value in % with no unit label.

# COMPOUND, UNITS TEXT, NUMERIC RESULT
rows = [
    ("CC1(C)CCC(CN2CCN(c3ccc(C(=O)NS(=O)(=O)c4ccc(NCC5CCOCC5)c([N+](=O)[O-])c4)c(Oc4cnc5[nH]ccc5c4)c3)CC2)=C(c2ccc(Cl)cc2)C1 + CCN1CCN(Cc2ccc(Nc3ncc(F)c(-c4cc(F)c5nc(C)n(C(C)C)c5c4)n3)nc2)CC1", "%", 81.8),
]

# context switch: different compound, same viability, T/C
Input COc1c(OCCCN2CCOCC2)ccc2c3n(c(=NC(=O)c4cnc(N)nc4)nc12)CCN3 + CCN1CCN(Cc2ccc(Nc3ncc(F)c(-c4cc(F)c5nc(C)n(C(C)C)c5c4)n3)nc2)CC1 . Output viability, T/C: 47.6
